Molecular target: recombinant homotrimeric HA A/common magpie/Hong Kong/5052/07 H5N1 (Influenza A virus A/common magpie/Hong Kong/5052/2007(H5N1))
Experiment: protein microarray, purified IgG, trimeric HA
Conditions: remark: other sources report otherwise
assayMetric: log10 of Trimeric HA Binding: RLU (log10 of the value in RLU)

>>> assayresult("TCN-555 (5246_L16) (antibody, V domains shown) VH: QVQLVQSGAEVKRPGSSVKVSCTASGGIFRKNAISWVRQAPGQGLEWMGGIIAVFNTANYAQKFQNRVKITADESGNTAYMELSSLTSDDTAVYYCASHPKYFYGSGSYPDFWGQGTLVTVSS VL: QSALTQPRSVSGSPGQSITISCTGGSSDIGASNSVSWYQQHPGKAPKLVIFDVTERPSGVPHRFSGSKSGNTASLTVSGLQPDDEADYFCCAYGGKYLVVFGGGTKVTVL")
4.23
>>> assayresult("TCN-551 (5243_D01) (antibody, V domains shown) VH: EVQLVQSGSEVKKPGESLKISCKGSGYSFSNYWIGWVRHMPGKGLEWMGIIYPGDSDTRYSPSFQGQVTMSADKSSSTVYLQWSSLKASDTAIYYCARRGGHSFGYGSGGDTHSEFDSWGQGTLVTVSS VL: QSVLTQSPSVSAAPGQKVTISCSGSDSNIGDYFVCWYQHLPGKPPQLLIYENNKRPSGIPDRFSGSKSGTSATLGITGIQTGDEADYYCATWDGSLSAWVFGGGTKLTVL")
2.96
>>> assayresult("TCN-546 (5089_L08) (antibody, V domains shown) VH: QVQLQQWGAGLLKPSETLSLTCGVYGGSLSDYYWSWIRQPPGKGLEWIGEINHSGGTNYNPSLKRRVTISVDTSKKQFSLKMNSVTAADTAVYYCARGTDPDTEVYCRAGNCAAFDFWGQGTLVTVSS VL: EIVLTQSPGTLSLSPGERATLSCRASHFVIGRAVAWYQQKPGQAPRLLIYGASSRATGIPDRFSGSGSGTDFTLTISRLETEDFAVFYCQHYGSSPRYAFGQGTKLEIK")
2.91
>>> assayresult("TCN-541 (5062_M11) (antibody, V domains shown) VH: QVQLQESGPGLVKPSETLSLTCTVSGGSINSYYWNWIRQPPGKGLEWIGYIYHSGSTNYNPSLKSRVTISVDTSKNQFSLQLSSVTAADTAVYYCARLRTDYGDPDSVYYYGMDVWGQGTTVTVSS VL: SYELTQPPSVSVSPGQTARITCSGDALPKQNAYWYQQKPGQAPVLLIYKDSERPSGIPERFSGSSSGTTVTLTISGVQAEDEADYYCQSADSSGTSWVFGGGTKLTVL")
2.86
>>> assayresult("TCN-528 (5087_P17) (antibody, V domains shown) VH: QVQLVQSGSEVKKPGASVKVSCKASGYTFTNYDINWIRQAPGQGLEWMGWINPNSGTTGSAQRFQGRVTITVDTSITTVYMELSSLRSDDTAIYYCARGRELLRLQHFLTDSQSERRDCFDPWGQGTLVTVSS VL: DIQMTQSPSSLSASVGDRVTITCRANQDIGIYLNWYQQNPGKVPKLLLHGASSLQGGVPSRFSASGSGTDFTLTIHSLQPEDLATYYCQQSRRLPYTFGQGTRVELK")
4.41
